These data points were gathered from patent US5006535A.

# tgt: H^+ K^+ ATPase (Sus scrofa, UniProt P19156)
# Construct: Lyophilised gastric vesicles were prepared from pig fundic mucosa
# Sequence (P19156 2-1034 limits assumed): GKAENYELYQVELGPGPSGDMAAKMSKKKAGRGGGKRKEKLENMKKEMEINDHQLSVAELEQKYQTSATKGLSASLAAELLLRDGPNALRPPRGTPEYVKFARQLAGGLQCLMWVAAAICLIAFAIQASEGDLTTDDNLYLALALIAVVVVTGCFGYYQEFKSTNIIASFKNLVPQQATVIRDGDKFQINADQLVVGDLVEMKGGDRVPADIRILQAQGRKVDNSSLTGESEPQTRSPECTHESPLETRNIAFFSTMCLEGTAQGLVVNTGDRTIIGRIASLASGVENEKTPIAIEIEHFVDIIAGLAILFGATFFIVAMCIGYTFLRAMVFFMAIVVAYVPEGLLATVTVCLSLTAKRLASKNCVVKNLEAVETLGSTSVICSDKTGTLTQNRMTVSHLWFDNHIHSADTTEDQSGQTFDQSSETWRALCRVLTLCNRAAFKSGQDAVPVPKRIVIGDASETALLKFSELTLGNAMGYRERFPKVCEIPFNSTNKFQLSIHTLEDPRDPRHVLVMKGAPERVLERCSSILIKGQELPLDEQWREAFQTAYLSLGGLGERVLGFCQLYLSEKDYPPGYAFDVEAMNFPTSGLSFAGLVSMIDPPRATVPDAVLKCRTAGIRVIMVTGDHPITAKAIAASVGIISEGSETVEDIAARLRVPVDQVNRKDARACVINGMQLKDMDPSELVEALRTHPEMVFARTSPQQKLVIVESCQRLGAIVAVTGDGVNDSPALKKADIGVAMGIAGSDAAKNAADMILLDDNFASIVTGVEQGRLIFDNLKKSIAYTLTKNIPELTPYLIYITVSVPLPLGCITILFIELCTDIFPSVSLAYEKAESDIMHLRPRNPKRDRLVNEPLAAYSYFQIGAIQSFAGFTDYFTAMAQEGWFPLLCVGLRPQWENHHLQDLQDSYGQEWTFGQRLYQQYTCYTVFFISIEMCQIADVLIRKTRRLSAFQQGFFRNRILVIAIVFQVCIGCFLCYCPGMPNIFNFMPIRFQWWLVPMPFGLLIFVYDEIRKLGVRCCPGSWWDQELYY
# Sequence (P18434 whole entry partner): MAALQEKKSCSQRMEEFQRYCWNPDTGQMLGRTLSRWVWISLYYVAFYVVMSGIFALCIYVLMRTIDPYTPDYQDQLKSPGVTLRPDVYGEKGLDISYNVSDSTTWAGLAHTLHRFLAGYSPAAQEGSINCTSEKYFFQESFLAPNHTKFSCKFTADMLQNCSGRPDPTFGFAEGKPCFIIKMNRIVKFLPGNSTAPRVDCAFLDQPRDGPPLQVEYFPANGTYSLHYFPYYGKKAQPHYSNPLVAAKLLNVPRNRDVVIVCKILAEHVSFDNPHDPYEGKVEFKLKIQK
# experiment summary: H^+ K^+ ATPase Activity (K^+ -stimulated ATPase activity in lyophilised gastric vesicles)
# test context: pig lyophilised gastric vesicles, pH 7.0, 37°, 30 minutes
# Procedure: The effects of a single high concentration (100 μM) of a compound of structure (I) on K-stimulated ATPase activity in lyophilised gastric vesicles was determined. Preferred compounds of structure (I) were also tested over a range of concentrations to determine IC50 values. […] K^+ -stimulated ATPase activity was determined at 37° in the presence of the following: 10 mM Pipes/Tris buffer pH 7.0, 2 mM MgSO4, 1 mM KCl, 2 mM Na2 ATP and 3-6 μg protein/ml lyophilised gastric vesicles. […]
reported endpoint: IC50 (nM)

Some solved cases for reference:
{"columns": ["smiles str", "reported endpoint", "measured"],
 "data": [
  ["CCOC(=O)c1cnc2c(OC)cccc2c1Nc1cscc1C", "IC50", 530],
  ["CCCC(=O)c1cnc2c(OC)cccc2c1Nc1ccsc1CC", "IC50", 1400]
]}

[P] CCCC(=O)c1cnc2c(OC)cccc2c1Nc1sccc1C
[Q] CCOC(=O)c1cnc2c(OC)cccc2c1Nc1cscc1OC
Select the item whose IC50 value is smaller, choosing between P and Q . // return label of chosen record
P
